biological target: Melanocortin receptor 3 (Homo sapiens, UniProt P41968); assay: Displacement of [125I]NDP-alpha-MSH from human MC3 receptor expressed in CHO cells
Sequence (P41968 whole entry): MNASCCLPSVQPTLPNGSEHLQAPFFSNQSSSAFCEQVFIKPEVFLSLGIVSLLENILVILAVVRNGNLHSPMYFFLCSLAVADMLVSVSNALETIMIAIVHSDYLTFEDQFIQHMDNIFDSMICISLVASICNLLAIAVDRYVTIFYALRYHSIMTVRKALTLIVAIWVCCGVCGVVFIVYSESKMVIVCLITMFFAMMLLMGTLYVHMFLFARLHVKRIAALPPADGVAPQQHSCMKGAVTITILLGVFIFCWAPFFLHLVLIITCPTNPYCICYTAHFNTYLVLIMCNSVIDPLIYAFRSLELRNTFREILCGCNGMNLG
Response field label: string, one of t (IC50 strictly below 4 µM) or f.

See these solved cases before continuing.
CC(C)N(CC(C1CCCCC1)N1CCN(C(=O)[C@@H]2CN(C(C)(C)C)C[C@H]2c2ccc(F)cc2F)CC1)S(C)(=O)=O (single isomer, unassigned; diastereomer 2) : t
CC(C)N(CC(C1CCCCC1)N1CCN(C(=O)[C@@H]2CN(C(C)(C)C)C[C@H]2c2ccc(F)cc2F)CC1)C(=O)c1cnn(C(C)C)c1 (single isomer, unassigned; diastereomer 1) : t
CC(=O)N(CC(CC(C)C)N1CCN(C(=O)[C@@H]2CN(C(C)(C)C)C[C@H]2c2ccc(F)cc2F)CC1)C(C)C (single isomer, unassigned; diastereomer 2) : f
CC(=O)N(CC(C1CCCCC1)N1CCN(C(=O)[C@@H]2CN(C(C)(C)C)C[C@H]2c2ccc(F)cc2F)CC1)C(C)C (stereo in doubt; 19B) : f
CC(C)CC(CN(C(C)C)S(C)(=O)=O)N1CCN(C(=O)[C@@H]2CN(C(C)(C)C)C[C@H]2c2ccc(F)cc2F)CC1 (single isomer, unassigned; diastereomer 2) : f

# next molecule below
Q: Determine whether this molecule shows IC50 lower than 4 µM (ties excluded): CC(C)N(CC(C1CCCCC1)N1CCN(C(=O)[C@@H]2CN(C(C)(C)C)C[C@H]2c2ccc(F)cc2F)CC1)C(=O)c1cccnn1 (single isomer, unassigned; diastereomer 1)
A: t
